Consider the following molecules and their measured IC50 readings.
- experimental.target: rat NaP2b (SLC34A2) (Rattus norvegicus)
- Construct: host or cells: HEK293
- Sequence (Q9JJ09 1-695): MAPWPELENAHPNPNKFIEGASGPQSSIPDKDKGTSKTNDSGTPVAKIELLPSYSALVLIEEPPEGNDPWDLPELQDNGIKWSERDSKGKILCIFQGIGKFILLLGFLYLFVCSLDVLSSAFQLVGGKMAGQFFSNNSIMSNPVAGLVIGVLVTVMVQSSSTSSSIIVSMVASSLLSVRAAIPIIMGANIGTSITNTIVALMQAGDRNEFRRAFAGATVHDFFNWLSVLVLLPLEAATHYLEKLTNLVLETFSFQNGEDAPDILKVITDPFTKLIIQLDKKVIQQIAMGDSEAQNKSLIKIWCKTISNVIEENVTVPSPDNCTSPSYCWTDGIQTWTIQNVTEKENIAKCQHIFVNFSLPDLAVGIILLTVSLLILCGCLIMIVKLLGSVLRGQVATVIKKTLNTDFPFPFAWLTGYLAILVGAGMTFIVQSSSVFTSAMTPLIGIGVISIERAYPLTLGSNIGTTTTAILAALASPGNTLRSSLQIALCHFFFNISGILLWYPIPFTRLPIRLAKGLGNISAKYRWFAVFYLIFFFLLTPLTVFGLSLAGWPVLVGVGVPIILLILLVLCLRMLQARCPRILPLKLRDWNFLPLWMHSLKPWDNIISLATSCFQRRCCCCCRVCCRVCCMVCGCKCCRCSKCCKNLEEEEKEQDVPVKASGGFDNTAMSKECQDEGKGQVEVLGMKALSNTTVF
- protocol.description: Inhibition of NaP2b-mediated Pi (33P) uptake in transfected HEK293 cells, rat NaP2b
- Format: cell-based
- condition.context: HEK293 cells transfected with rat NaP2b, 100 uM phosphate, 0.1 nM to 30 uM, read-out: pIC50 range for rat Nap2b (converted)

- molecule: "CN(CCN1CCN(S(C)(=O)=O)CC1)Cc1cccc(C(=O)Nc2ccc(N3CCCCC3)cc2-c2cc(C(=O)NCc3cccc(C(F)(F)F)c3)ccn2)c1"
  measured.value: "1 to 7.94 µM"
- molecule: "CC(C)Oc1ccc(NC(=O)c2cccc(CSCCC(=O)O)c2)c(-c2cc(C(=O)NCc3cccc(C(F)(F)F)c3)ccn2)c1"
  measured.value: "1 to 7.94 µM"
- molecule: "COc1ccc(NC(=O)c2cccc(CSCCC(=O)O)c2)c(-c2cc(C(=O)NCc3cccc(C(F)(F)F)c3)ccn2)c1"
  measured.value: "1 to 7.94 µM"
- molecule: "CCN(CC)c1ccc(NC(=O)c2cccc(C(=O)N(C)CCN3CCN(C(=O)N(C)CCOCCOCCOCCC(=O)N(C)C[C@H](O)[C@@H](O)[C@H](O)[C@H](O)CO)CC3)c2)c(-c2cc(C(=O)N[C@H]3CCCc4ccccc43)ccn2)c1"
  measured.value: "10 to 31.6 µM"

[Q] IC50 for "CC(=O)N1CCN(CCN(C)Cc2cccc(C(=O)Nc3ccc(N4CCCCC4)cc3-c3cc(C(=O)NCc4ccccc4)ccn3)c2)CC1" ?
[A] 10 to 31.6 µM

[Q] Endpoint output: IC50 of "COC1CCN(c2ccc(NC(=O)c3cccc(CSCCC(=O)O)c3)c(-c3cc(C(=O)NCc4cccc(C(F)(F)F)c4)ccn3)c2)CC1" . Value?
[A] 10 to 31.6 µM

[Q] Need IC50, item O=C(O)CCSCc1cccc(C(=O)Nc2ccc(N3CCCCC3)cc2-c2cc(C(=O)N3CCCC3c3ccccc3)ccn2)c1 (stereo not drawn)
[A] 10 to 31.6 µM

[Q] Please give the measured IC50 for this molecule: "CN(CCN1CCOCC1)C(=O)c1cccc(C(=O)Nc2ccc(N3CCCCC3)cc2-c2cc(-c3cn(Cc4ccccc4)nn3)ccn2)c1"
[A] 1 to 7.94 µM

[Q] Look up IC50: "O=C(O)CCSCc1cccc(C(=O)Nc2ccc(N3CCCC3)cc2-c2cc(C(=O)NCc3cccc(C(F)(F)F)c3)ccn2)c1"
[A] 1 to 7.94 µM

[Q] Query: IC50; subject: "O=C(O)CCSCc1cccc(C(=O)Nc2ccccc2-c2cc(C(=O)NCc3cccc(C(F)(F)F)c3)ccn2)c1"
[A] 10 to 31.6 µM

[Q] Record request: IC50 value, item "CCN(CC)c1ccc(NC(=O)c2cccc(CCCOCCOCCOCCOCCC(=O)N3CCN(C(=O)c4cccc(CCCOCCOCCOCCOCCC(=O)O)c4)CC3)c2)c(-c2cc(C(=O)NCc3cccc(C(F)(F)F)c3)ccn2)c1"
[A] 1 to 7.94 µM

[Q] Bench note: what IC50 did "CCN(CC)c1ccc(NC(=O)c2cccc(CS(=O)(=O)CCOCCOCCOCCOCCC(=O)O)c2)c(-c2cc(C(=O)NCc3cccc(C(F)(F)F)c3)ccn2)c1" show?
[A] 10 to 31.6 µM

[Q] Requested read-out: IC50. Entry: "O=C(O)CCSCc1cccc(C(=O)Nc2ccc(OCC(F)(F)F)cc2-c2cc(C(=O)NCc3cccc(C(F)(F)F)c3)ccn2)c1"
[A] 10 to 31.6 µM

[Q] GET /values?readout=IC50&item= "CCN(CC)c1ccc(NC(=O)c2cccc(COCCOCCOCCOCCOC(=O)N(CCO)CCO)c2)c(-c2cc(C(=O)NCc3cccc(C(F)(F)F)c3)ccn2)c1"
[A] 1 to 7.94 µM

[Q] Which measured IC50 value corresponds to "O=C(O)CCSCc1cccc(C(=O)Nc2ccc(N3CCSCC3)cc2-c2cc(C(=O)NCc3cccc(C(F)(F)F)c3)ccn2)c1" ?
[A] 1 to 7.94 µM
